Target: Eg5 motor domain (Homo sapiens, UniProt P52732)
Sequence (P52732 18-359 limits assumed): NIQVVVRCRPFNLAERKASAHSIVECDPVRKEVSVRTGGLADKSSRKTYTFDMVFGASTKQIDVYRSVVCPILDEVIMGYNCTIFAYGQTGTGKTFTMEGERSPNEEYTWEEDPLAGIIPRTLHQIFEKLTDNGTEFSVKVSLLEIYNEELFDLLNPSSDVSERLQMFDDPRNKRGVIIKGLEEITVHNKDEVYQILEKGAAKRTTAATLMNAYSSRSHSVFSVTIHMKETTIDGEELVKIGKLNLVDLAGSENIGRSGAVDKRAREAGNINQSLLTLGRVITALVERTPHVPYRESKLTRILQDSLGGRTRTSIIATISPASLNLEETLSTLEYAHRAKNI
Quick reference for Kd among some molecules

{"Molecule": "Cc1ccc(-n2nnnc2/C(=C/N(C)C)C(=O)c2cccc(C(F)(F)F)c2)cc1", "Kd (nM)": 133}
{"Molecule": "COc1ccc(C(OCC2OC(n3cnc4c(N)ncnc43)C(O)C2O)(c2ccccc2)c2ccccc2)cc1 (centres unmarked)", "Kd (nM)": 1130}

###

Target: Eg5 motor domain (Homo sapiens)
Sequence (P52732 18-359 limits assumed): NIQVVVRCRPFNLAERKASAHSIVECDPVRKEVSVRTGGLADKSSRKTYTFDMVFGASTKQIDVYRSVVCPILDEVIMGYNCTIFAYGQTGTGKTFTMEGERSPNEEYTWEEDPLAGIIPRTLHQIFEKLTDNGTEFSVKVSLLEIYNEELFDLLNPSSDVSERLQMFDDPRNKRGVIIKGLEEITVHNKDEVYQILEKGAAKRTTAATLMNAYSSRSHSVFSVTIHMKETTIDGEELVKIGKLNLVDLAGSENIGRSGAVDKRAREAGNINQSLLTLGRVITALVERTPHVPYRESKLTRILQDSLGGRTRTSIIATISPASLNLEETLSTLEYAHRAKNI
Test: SPR assay (Biacore T200)
Format: binding
Settings: SPR screening
Binding Level (RU) of 30 RU or higher: fulfilled. Under 30 RU: not fulfilled.

{"Compound": "Cn1cc(C2C(=O)NC(c3ccccc3)=NN2C(=O)c2ccccc2)c2ccccc21 (stereo not drawn)", "Target Desc": "Eg5 motor domain (Homo sapiens)", "Discrete Label": "not fulfilled"}
{"Compound": "CC(=O)C1=NN(c2ccc(Cl)cc2)C(c2ccc3c(c2)OCO3)N1c1ccccc1 (stereo not drawn)", "Target Desc": "Eg5 motor domain (Homo sapiens)", "Discrete Label": "fulfilled"}
{"Compound": "Cc1ccc(C2C3=C(CCCC3=O)N(c3ccc(Br)cc3)C(=N)/C2=C(/O)c2ccccc2)cc1 (stereo not drawn)", "Target Desc": "Eg5 motor domain (Homo sapiens)", "Discrete Label": "not fulfilled"}
{"Compound": "CC(=O)C1=NN(c2ccc(C)cc2)C(c2c[nH]c3ccccc23)N1c1ccc(C)cc1 (stereo not drawn)", "Target Desc": "Eg5 motor domain (Homo sapiens)", "Discrete Label": "not fulfilled"}
{"Compound": "CN(C)CCN1C(=O)C(=O)/C(=C(/O)c2ccccc2)C1c1ccc2c(c1)OCO2 (stereo not drawn)", "Target Desc": "Eg5 motor domain (Homo sapiens)", "Discrete Label": "not fulfilled"}
{"Compound": "OC(COCc1ccc2c(c1)OCO2)CN1CCN(C(c2ccccc2)c2ccccc2)CC1 (stereo not drawn)", "Target Desc": "Eg5 motor domain (Homo sapiens)", "Discrete Label": "fulfilled"}
{"Compound": "O=[N+]([O-])c1ccc(COc2ccccc2C2N(Cc3ccccc3)CCN2Cc2ccccc2)cc1", "Target Desc": "Eg5 motor domain (Homo sapiens)", "Discrete Label": "not fulfilled"}
{"Compound": "CC(=O)Nc1sc2c(c1C(c1ccc(OC(F)F)cc1)N1CCOCC1)CCCC2 (stereo not drawn)", "Target Desc": "Eg5 motor domain (Homo sapiens)", "Discrete Label": "not fulfilled"}
{"Compound": "N=C1/C(=C(/O)c2ccccc2)C(c2ccccc2)C2=C(CCCC2=O)N1c1ccc(Br)cc1 (stereo not drawn)", "Target Desc": "Eg5 motor domain (Homo sapiens)", "Discrete Label": "fulfilled"}
